Biological target: Estrogen receptor (Homo sapiens) (UniProt P03372)
Sequence (P03372 whole entry, looked up): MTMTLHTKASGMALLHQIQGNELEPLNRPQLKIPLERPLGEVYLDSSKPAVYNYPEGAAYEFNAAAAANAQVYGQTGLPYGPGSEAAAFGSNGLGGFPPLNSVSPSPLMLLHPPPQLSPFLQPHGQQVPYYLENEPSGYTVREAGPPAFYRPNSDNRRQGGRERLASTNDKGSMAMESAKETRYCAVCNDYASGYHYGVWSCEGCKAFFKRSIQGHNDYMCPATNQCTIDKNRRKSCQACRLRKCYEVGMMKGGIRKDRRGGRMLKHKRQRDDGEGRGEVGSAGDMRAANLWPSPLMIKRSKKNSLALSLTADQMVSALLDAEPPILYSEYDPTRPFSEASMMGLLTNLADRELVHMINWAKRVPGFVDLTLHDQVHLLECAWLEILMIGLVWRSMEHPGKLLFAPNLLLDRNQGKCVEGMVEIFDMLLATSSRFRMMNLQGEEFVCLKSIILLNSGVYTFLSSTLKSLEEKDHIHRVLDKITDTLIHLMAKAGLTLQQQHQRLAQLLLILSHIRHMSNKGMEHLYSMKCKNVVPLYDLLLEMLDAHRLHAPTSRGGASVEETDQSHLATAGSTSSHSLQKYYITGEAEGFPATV
Experiment: ATG_ERa_TRANS: Attagene TRANS-FACTORIAL HepG2 Assay for human Estrogen Receptor alpha (ERa) (AID 2282970)
Conditions: HepG2 Attagene TRANS ERa GAL4 reporter, mRNA
Inconclusive results are not listed. Calls of active or inactive are those of the source. Rule for the calls: active = hit-call score of the fitted dose curve at least 0.9, where 1 is the maximum; inconclusive = response in the unintended direction; inactive = score below 0.9.
Choose the fitting class; nothing outside class 1 for active, class 0 for inactive is accepted.

The examples below pair each entry with its known result.
compound	discreteLabel
CCOC(=O)Cc1cccc2ccccc12	class 0
CC1OC1C1CCC2(C)OC2C1 (stereo not given)	class 0
Cc1ccc(OC(=O)CC(C)C)cc1	class 0
CCCc1ccc(OC)cc1	class 0
CCCCC(CC)COC(=O)c1ccccc1 (stereo not given)	class 1
CCOC(=O)N1CCC(=C2c3ccc(Cl)cc3CCc3cccnc32)CC1	class 0
Cc1cccc(C(=O)O)c1	class 0
CC(C)(C)c1ccc(OC(=O)c2ccccc2O)cc1	class 1

Q: Fill in: this test's call for CC(C)(C)C1CCCCC1=O (stereo not given) is ___
Result: class 0

Q: Fill in: this test's call for `[Cl][In]([Cl])[Cl]` is ___
Result: class 0

Q: Fill in: this test's call for `Nc1ccc(Oc2ccc(N)c(N)c2)cc1` is ___
Result: class 0

Q: Fill in: this test's call for CC(C)CC(O)Cc1ccccc1 (stereo not given) is ___
Result: class 0

Q: Fill in: this test's call for CCC(C)(C)C1CCCCC1OC(C)=O (stereo not given) is ___
Result: class 0

Q: Fill in: this test's call for `Nc1ccc(N=Nc2ccccc2)c(N)n1` is ___
Result: class 1

Q: Fill in: this test's call for `O=C(c1ccccc1)c1ccc(O)c(O)c1O` is ___
Result: class 1

====

Assay: ATG_M_61_CIS: Attagene CIS-FACTORIAL HepG2 Assay for M61 Transcription Factor (Internal Marker) (AID 2282937)
Conditions: HepG2 Attagene CIS-FACTORIAL M61 internal marker reporter; actives raise or lower the signal
Experimental: ATG_CIS is a cell-based, multiplexed-readout assay that uses HepG2, a human liver cell line, with measurements taken at 24 hours after chemical dosing in a 24-well plate.ATG_M_61_CIS is one of 52 assay component(s) measured or calculated from the ATG_CIS assay. […] This assay endpoint, ATG_M_61_CIS, was analyzed with bidirectional fitting relative to DMSO as the negative control and baseline of activity. […]
Active and inactive are the calls of the source. Rule for the calls: active = hit-call score of the fitted dose curve at least 0.9, where 1 is the maximum; inactive = score below 0.9.
Choose the fitting class; nothing outside active, inactive is accepted.

The examples below pair each entry with its known result.
compound	discreteLabel
COC(=O)/C=C/C(C)=C\C=C\C(C)=C\C=C\C=C(C)\C=C\C=C(C)\C=C\C(=O)O	inactive
CCOC(=O)NNc1nncc2ccccc12	inactive
Nc1ccc(N=Nc2ccccc2)c(N)n1	inactive
CCC(CO)CO	inactive
CCO[Si](C)(OCC)OCC	inactive
CCCCCCCCCCCCCCCC[n+]1ccccc1	inactive
N=c1ccn2c(n1)O[C@H]1[C@H](O)[C@@H](CO)O[C@H]12	inactive
CC(=O)Nc1ccc2c(c1)Cc1cc(NC(C)=O)ccc1-2	inactive

// switching to the query compound
Q: Fill in: this test's call for `CC(=O)Nc1nnc(S(N)(=O)=O)s1` is ___
Result: inactive

====

Assay: ATG_AP_2_CIS: Attagene CIS-FACTORIAL HepG2 Assay for human Activator Protein 2 (AP-2) (AID 2282932)
Settings: HepG2 AP-2 cis-reporter, Attagene transcription factor profiling; actives raise or lower the signal
Calls of active or inactive are those of the source. Rule for the calls: active = hit-call score of the fitted dose curve at least 0.9, where 1 is the maximum; inactive = score below 0.9.
Choose the fitting class; nothing outside class 1 = active, class 0 = inactive is accepted.

The examples below pair each entry with its known result.
molecule	discreteLabel
O=C(O)c1ccccc1Nc1cccc(C(F)(F)F)c1	class 0
c1ccc(CNCc2ccccc2)cc1	class 0
CC(C)(c1cc(Br)c(OCCO)c(Br)c1)c1cc(Br)c(OCCO)c(Br)c1	class 1
O=C(O)CC(C(=O)O)C(CC(=O)O)C(=O)O (stereo unspecified)	class 0
CCOCC(=O)O	class 0

Q: Fill in: this test's call for CC(C)(C)C1CCCCC1=O (stereo unspecified) is ___
Result: class 0

Q: Fill in: this test's call for C=CC(=O)OCC(Br)CBr (stereo unspecified) is ___
Result: class 0

Q: Fill in: this test's call for `O=C(Cl)c1cc(C(=O)Cl)cc(C(=O)Cl)c1` is ___
Result: class 0

Q: Fill in: this test's call for Cc1ccc(C2OC[C@@H]3OC(c4ccc(C)cc4)O[C@H]([C@H](O)CO)[C@@H]3O2)cc1 (stereo partly specified) is ___
Result: class 0

Q: Fill in: this test's call for `CC(=O)c1ccc[nH]1` is ___
Result: class 0

Q: Fill in: this test's call for C=CC(C)(CCC=C(C)C)OC(=O)CC(C)C (stereo unspecified) is ___
Result: class 0

Q: Fill in: this test's call for `COC(=O)c1cc(Cl)ccc1[N+](=O)[O-]` is ___
Result: class 0

Q: Fill in: this test's call for CC(=O)OC1C2(C)CCC(C2)C1(C)C (stereo unspecified) is ___
Result: class 0

Q: Fill in: this test's call for `COc1ccc(NC(C)=O)cc1N` is ___
Result: class 0

Q: Fill in: this test's call for `CC(C)C1=CC2=CC[C@@H]3[C@](C)(CCC[C@@]3(C)C(=O)O)[C@H]2CC1` is ___
Result: class 0

Q: Fill in: this test's call for `C=C1[C@H]2CC[C@@H]3[C@H]2C(C)(C)CCC[C@]13C` is ___
Result: class 0

Q: Fill in: this test's call for `Nc1ccc(Cl)cc1Cl` is ___
Result: class 0

Q: Fill in: this test's call for `C[Si](C)(CCCN)O[Si](C)(C)CCCN` is ___
Result: class 0

Q: Fill in: this test's call for `CC[C@H]1OC(=O)[C@H](C)[C@@H](O[C@H]2C[C@@](C)(OC)[C@@H](O)[C@H](C)O2)[C@H](C)[C@@H](O[C@@H]2O[C@H](C)C[C@H](N(C)C)[C@H]2O)[C@](C)(O)C[C@@H](C)C(=NOCOCCOC)[C@H](C)[C@@H](O)[C@]1(C)O` is ___
Result: class 0

Q: Fill in: this test's call for `Cc1ccccc1C` is ___
Result: class 0

Q: Fill in: this test's call for `O=Nc1ccc(O)cc1` is ___
Result: class 0

Q: Fill in: this test's call for CCC(C)(C)C1CCCCC1OC(C)=O (stereo unspecified) is ___
Result: class 0

Q: Fill in: this test's call for NC(=O)C1CO1 (stereo unspecified) is ___
Result: class 0
